assay: Plasma pharmacokinetics of oral SNDX-275 in patients with advanced and refractory solid tumors or lymphoma (Example 2); type: in vivo; conditions: human, plasma, oral, 10 mg/m2, 10 mg/m^2, q14-day, first dose, fed, 6 patients; read-out: t1/2 Mean (converted)
assay.metric: half-life

Nc1ccccc1NC(=O)c1ccc(CNC(=O)OCc2cccnc2)cc1 :: 51.6 h

----------
experiment: clinical; details: human, in vivo, 2 mg/m2, Cmax
assay.metric: Cmax (ng/mL)

Nc1ccccc1NC(=O)c1ccc(CNC(=O)OCc2cccnc2)cc1 :: 25.3

----------
assay: Plasma pharmacokinetics of oral SNDX-275 in adults with advanced acute leukemias (Example 3); type: in vivo, human; conditions: human, plasma, oral, 10 mg/m2; 10 mg/m^2, first dose, with food, 6 patients; read-out: Tmax (median)
assay.metric: Tmax (h)

Nc1ccccc1NC(=O)c1ccc(CNC(=O)OCc2cccnc2)cc1 :: 1

src = patent US20130303575A1
